The origin of these recorded values is PubChem BioAssay AID2060489.

The entries below come with measured IC50 values attached.
Tested on: 922993-354-T-J3-PDC complex spheroids, viability
Test details: Anticancer human tumor 922993-354-T-J3-PDC patient-derived endometrial carcinoma cell line growth inhibition [GQUAD]
Assay setup: curve of first compound; second compound 1 µM

Entry CC(C)n1c(=O)n(C)c2cnc3cc(F)c(-c4ccc(OCCCN5CCCCC5)nc4)cc3c21 + Cc1[nH]c2ccc(F)cc2c1-c1nc2c3cccnc3c3ncccc3c2[nH]1 : IC50 on 922993-354-T-J3-PDC complex spheroids, viability = > 10000 nM

Entry C=CCn1c(=O)c2cnc(Nc3ccc(N4CCN(C)CC4)cc3)nc2n1-c1cccc(C(C)(C)O)n1 + CN(C)c1ccc(Nc2c3ccc(NC(=O)CCN4CCCC4)cc3nc3cc(NC(=O)CCN4CCCC4)ccc23)cc1 : IC50 on 922993-354-T-J3-PDC complex spheroids, viability = 5260 nM

Entry CC1COCCN1c1cc(C2(O)CC3CCC(C2)O3)c2cnn(-c3ccn[nH]3)c2n1 (centres undefined) + Cc1cnc(CNC(=O)c2c(=O)c3ccc(N4CCCN(C)CC4)nc3n3c2sc2ccccc23)cn1 : IC50 on 922993-354-T-J3-PDC complex spheroids, viability = < 31.6 nM

Entry CC(C)n1c(=O)n(C)c2cnc3cc(F)c(-c4ccc(OCCCN5CCCCC5)nc4)cc3c21 + CN(C)c1ccc(Nc2c3ccc(NC(=O)CCN4CCCC4)cc3nc3cc(NC(=O)CCN4CCCC4)ccc23)cc1 : IC50 on 922993-354-T-J3-PDC complex spheroids, viability = > 10000 nM

Entry C=CCn1c(=O)c2cnc(Nc3ccc(N4CCN(C)CC4)cc3)nc2n1-c1cccc(C(C)(C)O)n1 + Cc1cnc(CNC(=O)c2c(=O)c3ccc(N4CCCN(C)CC4)nc3n3c2sc2ccccc23)cn1 : IC50 on 922993-354-T-J3-PDC complex spheroids, viability = < 31.6 nM

Entry CCc1c2c(nc3ccc(O)cc13)-c1cc3c(c(=O)n1C2)COC(=O)[C@]3(O)CC + CN(C)c1ccc(Nc2c3ccc(NC(=O)CCN4CCCC4)cc3nc3cc(NC(=O)CCN4CCCC4)ccc23)cc1 : IC50 on 922993-354-T-J3-PDC complex spheroids, viability = 6.51 nM

* * *

The entries below come with measured viability, T/C values attached.
Test system: 922993-354-T-J3-PDC complex spheroids, viability
Test details: Anticancer human tumor 922993-354-T-J3-PDC cell line growth inhibition [GQUAD];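 further: spheroids exposed to compounds for seven days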;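 on viability, T/C: 100% = DMSO vehicle control viability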
Assay setup: second compound 0.0316 µM; first compound 0.1 µM; stronger effect = lower value
Text: DNA G-quadruplex Stabilizer Agents in Combinations in Complex Spheroids A high-throughput screen of multi-cell type tumor spheroids was designed to identify active combinations of DNA G-quadruplex stabilizer agents and targeted small molecules. […] Compounds. […] If the clinical Cmax for an agent had not been determined, the highest concentration tested was 10 microM. […]
Answer with a number only, understood to be in %.

Previously resolved entries follow.
// viability, T/C lookup, compound = C#Cc1c(F)ccc2cc(O)cc(-c3ncc4c(N5CC6CCC(C5)N6)nc(OCC56CCCN5CC(F)C6)nc4c3F)c12 (configuration not stated) + CN(C)c1ccc(Nc2c3ccc(NC(=O)CCN4CCCC4)cc3nc3cc(NC(=O)CCN4CCCC4)ccc23)cc1 , result: 78.5

// viability, T/C lookup, compound = COc1cccc2c1C(=O)c1c(O)c3c(c(O)c1C2=O)CC(O)(C(=O)CO)CC3OC1CC(N)C(O)C(C)O1 (configuration not stated) + Cc1cnc(CNC(=O)c2c(=O)c3ccc(N4CCCN(C)CC4)nc3n3c2sc2ccccc23)cn1 , result: 79.4

// viability, T/C lookup, compound = CC1COCCN1c1cc(C2(S(C)(=N)=O)CC2)nc(-c2ccnc3[nH]ccc23)n1 (configuration not stated) + Cc1cnc(CNC(=O)c2c(=O)c3ccc(N4CCCN(C)CC4)nc3n3c2sc2ccccc23)cn1 , result: 79.4

// viability, T/C lookup, compound = CC(C)(O)C1CCC(Nc2ccc3ncc(-c4cccc(C(F)(F)F)c4)n3n2)CC1 (configuration not stated) + Cc1[nH]c2ccc(F)cc2c1-c1nc2c3cccnc3c3ncccc3c2[nH]1 , result: 93.5

// viability, T/C lookup, compound = O=C(NO)c1cnc(N2CCN(S(=O)(=O)c3ccc4ccccc4c3)CC2)nc1 + CN(C)c1ccc(Nc2c3ccc(NC(=O)CCN4CCCC4)cc3nc3cc(NC(=O)CCN4CCCC4)ccc23)cc1 , result: 79.2

Continuing:
// viability, T/C lookup, compound = CC1COCCN1c1cc(-c2ccnn2C)c2ccnc(-c3ccn[nH]3)c2n1 (configuration not stated) + CN(C)c1ccc(Nc2c3ccc(NC(=O)CCN4CCCC4)cc3nc3cc(NC(=O)CCN4CCCC4)ccc23)cc1 , result: 73.4

// viability, T/C lookup, compound = O=C(c1cc(Cc2n[nH]c(=O)c3ccccc23)ccc1F)N1CCN(C(=O)C2CC2)CC1 + Cc1[nH]c2ccc(F)cc2c1-c1nc2c3cccnc3c3ncccc3c2[nH]1 , result: 113

* * *

Tested on: 922993-354-T-J3-PDC complex spheroids, viability
Test details: Anticancer human tumor 922993-354-T-J3-PDC cell line growth inhibition [GQUAD];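 further: spheroids exposed to compounds for seven days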;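 on viability, T/C: 100% = DMSO vehicle control viability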
Assay setup: second compound 1 µM; first compound 0.316 µM; stronger effect = lower value
The entries below come with measured viability, T/C values attached.
Answer with a number only, understood to be in %.

Previously resolved entries follow.
// viability, T/C lookup, molecule = CCCS(=O)(=O)Nc1ccc(F)c(C(=O)c2c[nH]c3ncc(-c4ccc(Cl)cc4)cc23)c1F + CN(C)c1ccc(Nc2c3ccc(NC(=O)CCN4CCCC4)cc3nc3cc(NC(=O)CCN4CCCC4)ccc23)cc1 , result: 83.3

// viability, T/C lookup, molecule = O=C(c1cc(Cc2n[nH]c(=O)c3ccccc23)ccc1F)N1CCN(C(=O)C2CC2)CC1 + Cc1[nH]c2ccc(F)cc2c1-c1nc2c3cccnc3c3ncccc3c2[nH]1 , result: 108

// viability, T/C lookup, molecule = Cc1cccc(N(C)C(=O)C2C(O)CCN2c2nc(C)cc(C(F)(F)F)c2C#N)c1 (stereo unspecified) + Cc1cnc(CNC(=O)c2c(=O)c3ccc(N4CCCN(C)CC4)nc3n3c2sc2ccccc23)cn1 , result: 54.4

// viability, T/C lookup, molecule = CC(C)(O)C1CCC(Nc2ccc3ncc(-c4cccc(C(F)(F)F)c4)n3n2)CC1 (stereo unspecified) + CN(C)c1ccc(Nc2c3ccc(NC(=O)CCN4CCCC4)cc3nc3cc(NC(=O)CCN4CCCC4)ccc23)cc1 , result: 79

// viability, T/C lookup, molecule = C#Cc1c(F)ccc2cc(O)cc(-c3ncc4c(N5CC6CCC(C5)N6)nc(OCC56CCCN5CC(F)C6)nc4c3F)c12 (stereo unspecified) + Cc1cnc(CNC(=O)c2c(=O)c3ccc(N4CCCN(C)CC4)nc3n3c2sc2ccccc23)cn1 , result: 38.4

// viability, T/C lookup, molecule = CCc1c2c(nc3ccc(O)cc13)-c1cc3c(c(=O)n1C2)COC(=O)[C@]3(O)CC + Cc1cnc(CNC(=O)c2c(=O)c3ccc(N4CCCN(C)CC4)nc3n3c2sc2ccccc23)cn1 , result: 38.1

// viability, T/C lookup, molecule = Cc1cccc(N(C)C(=O)C2C(O)CCN2c2nc(C)cc(C(F)(F)F)c2C#N)c1 (stereo unspecified) + CN(C)c1ccc(Nc2c3ccc(NC(=O)CCN4CCCC4)cc3nc3cc(NC(=O)CCN4CCCC4)ccc23)cc1 , result: 101

// viability, T/C lookup, molecule = COc1ncnc(C2CC2)c1-c1ncc2cnn(Cc3ccc(-c4nc(C(F)(F)F)cn4C(C)C)cc3)c2n1 + CN(C)c1ccc(Nc2c3ccc(NC(=O)CCN4CCCC4)cc3nc3cc(NC(=O)CCN4CCCC4)ccc23)cc1 , result: 93.6

// viability, T/C lookup, molecule = CC(C)n1c(=O)n(C)c2cnc3cc(F)c(-c4ccc(OCCCN5CCCCC5)nc4)cc3c21 + Cc1cnc(CNC(=O)c2c(=O)c3ccc(N4CCCN(C)CC4)nc3n3c2sc2ccccc23)cn1 , result: 54.4

// viability, T/C lookup, molecule = COc1cc(C2c3cc4c(cc3C(OC3OC5COC(C)OC5C(O)C3O)C3COC(=O)C23)OCO4)cc(OC)c1O (stereo unspecified) + CN(C)c1ccc(Nc2c3ccc(NC(=O)CCN4CCCC4)cc3nc3cc(NC(=O)CCN4CCCC4)ccc23)cc1 , result: 105

Could you now consider this next molecule?
// viability, T/C lookup, molecule = C=CCn1c(=O)c2cnc(Nc3ccc(N4CCN(C)CC4)cc3)nc2n1-c1cccc(C(C)(C)O)n1 + Cc1cnc(CNC(=O)c2c(=O)c3ccc(N4CCCN(C)CC4)nc3n3c2sc2ccccc23)cn1 , result: 39.2

* * *

System: 922993-354-T-J3-PDC complex spheroids, viability
Test details: Anticancer human tumor 922993-354-T-J3-PDC cell line growth inhibition [GQUAD]; active means viability on the fitted dose curve at most 10% of control; inactive means the rest;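 further: spheroids exposed to compounds for seven days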
Assay setup: second compound 0.0316 µM; first compound 10 µM
Answer with one of the outcomes given here: active, inactive

Q: Fill in: this test's call for CCCS(=O)(=O)Nc1ccc(F)c(C(=O)c2c[nH]c3ncc(-c4ccc(Cl)cc4)cc23)c1F + CN(C)c1ccc(Nc2c3ccc(NC(=O)CCN4CCCC4)cc3nc3cc(NC(=O)CCN4CCCC4)ccc23)cc1 is ___
Ans: inactive

Q: Fill in: this test's call for O=C(NO)c1cnc(N2CCN(S(=O)(=O)c3ccc4ccccc4c3)CC2)nc1 + CN(C)c1ccc(Nc2c3ccc(NC(=O)CCN4CCCC4)cc3nc3cc(NC(=O)CCN4CCCC4)ccc23)cc1 is ___
Ans: active

Q: Fill in: this test's call for O=c1[nH]cc(F)c(=O)[nH]1 + CN(C)c1ccc(Nc2c3ccc(NC(=O)CCN4CCCC4)cc3nc3cc(NC(=O)CCN4CCCC4)ccc23)cc1 is ___
Ans: inactive

Q: Fill in: this test's call for COc1cc(C2c3cc4c(cc3C(OC3OC5COC(C)OC5C(O)C3O)C3COC(=O)C23)OCO4)cc(OC)c1O (stereo not given) + CN(C)c1ccc(Nc2c3ccc(NC(=O)CCN4CCCC4)cc3nc3cc(NC(=O)CCN4CCCC4)ccc23)cc1 is ___
Ans: inactive

Here is the next item to consider.
Q: Fill in: this test's call for COc1ccc([C@@H](O)c2cc(-c3ncnc4cc(N5CCOCC5)ccc34)c(F)cc2Cl)nn1 + Cc1[nH]c2ccc(F)cc2c1-c1nc2c3cccnc3c3ncccc3c2[nH]1 is ___
Ans: inactive
